B1: CPEB3 Ribozyme (parent)
chain: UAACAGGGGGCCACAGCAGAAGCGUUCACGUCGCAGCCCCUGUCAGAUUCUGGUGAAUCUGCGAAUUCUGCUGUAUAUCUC

# Variants of: B1
# measurement notes: self-cleavage, relative activity (ratio to wild type); higher = more cleavage; in vitro, sequencing
# label = Criterion met if self-cleavage >= 0.3 else Criterion not met

[ask] Reported self-cleavage at or above 0.3? C40U G55U
[reply] Criterion met

[ask] Reported self-cleavage at or above 0.3? A15G U49C
[reply] Criterion not met

[ask] Reported self-cleavage at or above 0.3? G36A C59U
[reply] Criterion met

[ask] Reported self-cleavage at or above 0.3? A56U A77G
[reply] Criterion met

[ask] Reported self-cleavage at or above 0.3? G63U U78A
[reply] Criterion met

[ask] Reported self-cleavage at or above 0.3? `G70C`
[reply] Criterion met

[ask] Reported self-cleavage at or above 0.3? C50A U69C
[reply] Criterion met

[ask] Reported self-cleavage at or above 0.3? A18U U58G
[reply] Criterion not met

[ask] Reported self-cleavage at or above 0.3? A20C U69C
[reply] Criterion not met

[ask] Reported self-cleavage at or above 0.3? A3G G33U
[reply] Criterion not met

[ask] Reported self-cleavage at or above 0.3? A5C C32G
[reply] Criterion not met

[ask] Reported self-cleavage at or above 0.3? G9A A64U
[reply] Criterion met

[ask] Reported self-cleavage at or above 0.3? A21U U51C
[reply] Criterion met

[ask] Reported self-cleavage at or above 0.3? U25A C37U
[reply] Criterion met

[ask] Reported self-cleavage at or above 0.3? G19U U25A
[reply] Criterion not met

[ask] Reported self-cleavage at or above 0.3? C40A U51G
[reply] Criterion not met

[ask] Reported self-cleavage at or above 0.3? A18U C62G
[reply] Criterion not met

[ask] Reported self-cleavage at or above 0.3? G8U U72A
[reply] Criterion not met

[ask] Reported self-cleavage at or above 0.3? G36A A45G
[reply] Criterion not met

[ask] Reported self-cleavage at or above 0.3? A5U A64C
[reply] Criterion met

[ask] Reported self-cleavage at or above 0.3? U67A U74A
[reply] Criterion met

[ask] Reported self-cleavage at or above 0.3? U43A G53A
[reply] Criterion met

[ask] Reported self-cleavage at or above 0.3? U25G U58C
[reply] Criterion not met

[ask] Reported self-cleavage at or above 0.3? U74C U76C
[reply] Criterion met

[ask] Reported self-cleavage at or above 0.3? U67C U74C
[reply] Criterion met

[ask] Reported self-cleavage at or above 0.3? U49A U58C
[reply] Criterion met

[ask] Reported self-cleavage at or above 0.3? A5C A15G
[reply] Criterion met

[ask] Reported self-cleavage at or above 0.3? A5U C81U
[reply] Criterion met

[ask] Reported self-cleavage at or above 0.3? A15C C40U
[reply] Criterion met

[ask] Reported self-cleavage at or above 0.3? C14U A47G
[reply] Criterion met

[ask] Reported self-cleavage at or above 0.3? U54G G63U
[reply] Criterion met

[ask] Reported self-cleavage at or above 0.3? C38U A45U
[reply] Criterion met

[ask] Reported self-cleavage at or above 0.3? `A2C`
[reply] Criterion met

[ask] Reported self-cleavage at or above 0.3? C29A A64U
[reply] Criterion not met

[ask] Reported self-cleavage at or above 0.3? C23G U80C
[reply] Criterion not met

[ask] Reported self-cleavage at or above 0.3? A13U C50A
[reply] Criterion met

[ask] Reported self-cleavage at or above 0.3? A3U C68G
[reply] Criterion met

[ask] Reported self-cleavage at or above 0.3? G46A A64G
[reply] Criterion not met
